From: ChEMBL document CHEMBL5291721

# collection of AC50 values tested on Adenosine receptor A1 (Homo sapiens, UniProt P30542); also: assay procedure not described here
# Sequence (P30542 whole entry): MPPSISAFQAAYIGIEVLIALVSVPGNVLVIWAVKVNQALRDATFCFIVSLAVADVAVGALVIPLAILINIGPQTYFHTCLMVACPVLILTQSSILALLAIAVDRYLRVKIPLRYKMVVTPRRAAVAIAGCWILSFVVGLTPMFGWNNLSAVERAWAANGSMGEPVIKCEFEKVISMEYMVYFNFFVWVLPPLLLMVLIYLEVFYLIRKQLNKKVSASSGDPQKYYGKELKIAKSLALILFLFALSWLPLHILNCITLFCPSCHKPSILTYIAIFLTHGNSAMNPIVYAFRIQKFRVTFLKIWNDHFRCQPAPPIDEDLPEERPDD

(Q) Sample C[C@H]1c2cccc(O)c2C(=O)C2=C(O)[C@]3(O)C(=O)C(C(N)=O)=C(O)[C@@H](N(C)C)[C@@H]3[C@@H](O)[C@@H]21 — what was its AC50?
(A) 24.2 µM

(Q) Next compound up: CC(C)(C)C(=O)OCC(=O)[C@H]1CC[C@H]2[C@@H]3CCC4=CC(=O)CC[C@]4(C)[C@H]3CC[C@]12C [DESOXYCORTICOSTERONE PIVALATE]
(A) > 10 µM

(Q) Next compound up: CCOC(=O)O[C@]1(C(=O)OCCl)CC[C@H]2[C@@H]3CCC4=CC(=O)C=C[C@]4(C)[C@H]3[C@@H](O)C[C@@]21C [LOTEPREDNOL ETABONATE]
(A) > 30 µM

(Q) Next compound up: CC(=O)[C@]1(O)Cc2c(O)c3c(c(O)c2[C@@H](O[C@H]2C[C@H](N)[C@H](O)[C@H](C)O2)C1)C(=O)c1ccccc1C3=O
(A) > 10 µM

(Q) Next compound up: C/C(=C\C(=O)OCCCCCCCCC(=O)O)C[C@@H]1OC[C@H](C[C@@H]2O[C@H]2[C@@H](C)[C@H](C)O)[C@@H](O)[C@H]1O
(A) > 10 µM

(Q) Next compound up: C[C@@H](Oc1cc(-c2cnn(C3CCNCC3)c2)cnc1N)c1c(Cl)ccc(F)c1Cl
(A) > 30 µM

(Q) Next compound up: C#CCOc1ccc(N)cc1C(=O)NCCCC [PARSALMIDE]
(A) > 30 µM

(Q) Next compound up: CCCCC(=O)O[C@]1(C(=O)CO)[C@@H](C)C[C@H]2[C@@H]3CCC4=CC(=O)C=C[C@]4(C)[C@@]3(F)[C@@H](O)C[C@@]21C [BETAMETHASONE VALERATE]
(A) > 30 µM

(Q) Next compound up: CC(N)C12CC3CC(CC(C3)C1)C2 (centres undefined)
(A) > 10 µM

(Q) Next compound up: COc1ccc(-c2noc(CC(=O)O)c2-c2ccc(OC)cc2)cc1
(A) > 30 µM

(Q) Next compound up: O=C1CN(/N=C/c2ccc(-c3ccc([N+](=O)[O-])cc3)o2)C(O)=N1
(A) 25 µM

(Q) Next compound up: CN1C(C(=O)Nc2ccccn2)=C(O)c2ccccc2S1(=O)=O
(A) > 10 µM

(Q) Next compound up: CC(CCc1ccc(O)cc1)NCCc1ccc(O)c(O)c1 (centres undefined)
(A) > 30 µM

(Q) Next compound up: Nc1ccc(S(=O)(=O)Nc2nccs2)cc1
(A) > 30 µM

(Q) Next compound up: CCC[C@H](NC(=O)[C@@H]1[C@H]2CCC[C@H]2CN1C(=O)[C@@H](NC(=O)[C@@H](NC(=O)c1cnccn1)C1CCCCC1)C(C)(C)C)C(=O)C(=O)NC1CC1
(A) > 30 µM

(Q) Next compound up: Nc1cc(-c2ccncc2)c[nH]c1=O
(A) > 30 µM

(Q) Next compound up: CCCC(CCC)C(=O)O
(A) > 30 µM

(Q) Next compound up: O=C1CN=C(c2ccccn2)c2cc(Br)ccc2N1
(A) > 10 µM

(Q) Next compound up: CNCc1ccc(-c2[nH]c3cc(F)cc4c3c2CCNC4=O)cc1
(A) > 30 µM

(Q) Next compound up: CCCC(CCC)C(N)=O [VALPROMIDE]
(A) > 30 µM

(Q) Next compound up: C=CC[C@@H]1/C=C(\C)C[C@H](C)C[C@H](OC)[C@H]2O[C@@](O)(C(=O)C(=O)N3CCCC[C@H]3C(=O)O[C@H](/C(C)=C/[C@@H]3CC[C@@H](O)[C@H](OC)C3)[C@H](C)[C@@H](O)CC1=O)[C@H](C)C[C@@H]2OC [TACROLIMUS ANHYDROUS]
(A) > 30 µM

(Q) Next compound up: CC(N)C(O)c1ccccc1 (centres undefined)
(A) > 30 µM

(Q) Next compound up: Cc1cnc(C(=O)NCCc2ccc(S(=O)(=O)NC(=O)NC3CCCCC3)cc2)cn1 [GLIPIZIDE]
(A) > 30 µM

(Q) Next compound up: C[C@]12CC[C@@H]3c4ccc(O)cc4C[C@@H](CCCCCCCCC[S+]([O-])CCCC(F)(F)C(F)(F)F)[C@H]3[C@@H]1CC[C@@H]2O (some centres undefined)
(A) > 30 µM
